# System: Leishmania donovani
# Test summary: Antileishmanial activity against promastigotes-based model of Leishmania donovani MHOM/SD/62/1S-CL2D assessed as growth inhibition by measuring metabolism of resazurin to resorufin by aerobic respiration at 50 uM measured after 3 days relative to control
# Format: functional
# Condition set: 72 h, time 3 day
Parameter measured: inhibition at 50 µM (%)

[[record]]
chemical_smiles = "Cc1c(C(=O)N[C@@H](Cc2ccccc2)[C@@H](O)C(N)=O)[nH]c2ccccc2c1=O"
target_desc = "Leishmania donovani"
parameter_measured = "inhibition at 50 µM"
unit_tag = "%"
quantitative_result = 51

[[record]]
chemical_smiles = "Cc1c(C(=O)N[C@@H](Cc2ccccc2)[C@@H](O)C(=O)NCc2ccccc2)[nH]c2ccccc2c1=O"
target_desc = "Leishmania donovani"
parameter_measured = "inhibition at 50 µM"
unit_tag = "%"
quantitative_result = 91

[[record]]
chemical_smiles = "COc1ccc(CNC(=O)[C@H](O)[C@H](Cc2ccccc2)NC(=O)c2[nH]c3ccccc3c(=O)c2C)cc1"
target_desc = "Leishmania donovani"
parameter_measured = "inhibition at 50 µM"
unit_tag = "%"
quantitative_result = 16

[[record]]
chemical_smiles = "Cc1c(C(=O)N[C@@H](Cc2ccccc2)[C@@H](O)C(=O)NCCc2ccccn2)[nH]c2ccccc2c1=O"
target_desc = "Leishmania donovani"
parameter_measured = "inhibition at 50 µM"
unit_tag = "%"
quantitative_result = 31

[[record]]
chemical_smiles = "CNC(=O)[C@H](O)[C@H](Cc1ccccc1)NC(=O)c1[nH]c2ccccc2c(=O)c1C"
target_desc = "Leishmania donovani"
parameter_measured = "inhibition at 50 µM"
unit_tag = "%"
quantitative_result = 22

